EC50 by entry:
Biological target: human GPR120 (hGPR120) (Homo sapiens, UniProt Q5NUL3)
Sequence (Q5NUL3 1-361): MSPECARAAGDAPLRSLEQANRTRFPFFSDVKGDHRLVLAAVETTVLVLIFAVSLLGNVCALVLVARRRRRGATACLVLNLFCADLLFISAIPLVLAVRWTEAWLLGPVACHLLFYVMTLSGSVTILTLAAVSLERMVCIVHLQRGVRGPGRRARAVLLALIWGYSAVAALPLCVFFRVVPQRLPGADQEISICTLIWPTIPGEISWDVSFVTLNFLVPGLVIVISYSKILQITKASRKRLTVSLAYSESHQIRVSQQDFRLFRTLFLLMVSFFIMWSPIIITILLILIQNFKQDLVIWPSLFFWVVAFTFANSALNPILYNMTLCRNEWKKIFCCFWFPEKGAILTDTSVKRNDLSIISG
Assay: Calcium flux assay in hGPR120-transfected CHO cells
Give me the value, and tack the unit on after it.

Summary for this molecule, Cc1ccc(-c2ccc(F)cc2OCc2ccc(OCCCC(=O)O)c(C)c2)cc1 [Compound 10g] : EC50 is 380 nM

Form: molecule = O=C(O)CCCOc1ccc(COc2cc(F)ccc2-c2ccc(F)cc2)cc1F [Compound 14d] ; EC50 = 37.5 nM

Lab note: COc1ccc(-c2ccc(F)cc2OCc2ccc(OCCCC(=O)O)c(F)c2)cc1 [Compound 14e] gave EC50 of 260 nM

Briefly, EC50 measured for Cc1ccc(-c2ccc(F)cc2OCc2ccc(OCCCC(=O)O)cc2)cc1 [Compound 10c] : 129 nM

Next:
EC50 recorded for this molecule, Cc1ccc(-c2ccc(F)cc2OCc2ccc(OCCCCC(=O)O)cc2)cc1 [Compound 10d] , is 103 nM

----------
Assay: Pharmacokinetic analysis in C57BL/6 mice
Type: in vivo
Conditions: male, mouse, plasma, po; C57BL/6 mice, 10 mg/kg gavage
Reported Property: Tmax
For clarity, give the value followed by its unit.

Measured Tmax, O=C(O)CCCOc1ccc(COc2cc(F)ccc2-c2ccc(F)cc2)cc1F [Compound 14d] : 30 min

// next item, Tmax requested
Cc1ccc(-c2ccc(F)cc2OCc2ccc(OCCCC(=O)O)c(F)c2)cc1 [Compound 10k] has a reported Tmax of 30 min

----------
Reported Property: melting point

Entry under test: COc1ccc(-c2ccc(F)cc2OCc2ccc(OCCCC(=O)O)c(F)c2)cc1 [Compound 14e] . Its melting point was 103 to 105 °C

The compound listed as O=C(O)CCCOc1ccc(COc2cc(F)ccc2-c2ccccc2F)cc1F [Compound 14c] has a reported melting point of 94 to 96 °C

The value of melting point measured for the compound Cc1ccc(-c2ccc(F)cc2OCc2ccc(OCCC(=O)O)cc2)cc1 [Compound 10b] turned out to be 120 to 122 °C

Reported melting point ( Cc1ccc(-c2ccc(F)cc2OCc2ccc(OCCCC(=O)O)c(F)c2)c(Cl)c1 [Compound 14m] ) = 105 to 107 °C

For record O=C(O)CCCOc1ccc(COc2cc(F)ccc2-c2ccc(F)cc2)cc1F [Compound 14d] the listed melting point is 89 to 91 °C

----------
Quick list: melting point per entry.

Item: Cc1ccc(-c2ccc(F)cc2OCc2ccc(OCCCC(=O)O)c(F)c2)c(F)c1 [Compound 14n] | melting point: 92 to 94 °C

Further cases:
Record Cc1ccccc1-c1ccc(F)cc1OCc1ccc(OCCCC(=O)O)c(F)c1 [Compound 14a] , field melting point: 83 to 85 °C

Form: compound = Cc1ccc(-c2ccc(F)cc2OCc2ccc(OCCCC(=O)O)c(F)c2)cc1 [Compound 10k] ; melting point = 130 to 132 °C

// Cc1ccc(-c2ccc(F)cc2OCc2ccc(OCC(=O)O)c(F)c2)cc1 [Compound 10i] : melting point value = 90 to 92 °C

Lookup result for Cc1ccc(-c2ccc(F)cc2OCc2ccc(OCCC(=O)O)c(C)c2)cc1 [Compound 10f] ; measured melting point: 125 to 127 °C

Entry under test: Cc1ccc(-c2ccc(F)cc2OCc2ccc(OCCCC(=O)O)cc2)cc1 [Compound 10c] . Its melting point was 106 to 108 °C

The value of melting point measured for the compound Cc1ccc(-c2ccc(F)cc2OCc2ccc(OCC(=O)O)c(C)c2)cc1 [Compound 10e] turned out to be 128 to 130 °C

Record Cc1ccc(-c2ccc(F)cc2OCc2ccc(OCC(=O)O)cc2)cc1 [Compound 10a] . Reported melting point: 164 to 166 °C

Cc1ccc(-c2ccc(F)cc2OCc2ccc(OCCCCC(=O)O)cc2)cc1 [Compound 10d] has a reported melting point of 124 to 126 °C

----------
Target: mouse GPR40 (mGPR40) (Mus musculus)
Sequence (Q76JU9 whole entry): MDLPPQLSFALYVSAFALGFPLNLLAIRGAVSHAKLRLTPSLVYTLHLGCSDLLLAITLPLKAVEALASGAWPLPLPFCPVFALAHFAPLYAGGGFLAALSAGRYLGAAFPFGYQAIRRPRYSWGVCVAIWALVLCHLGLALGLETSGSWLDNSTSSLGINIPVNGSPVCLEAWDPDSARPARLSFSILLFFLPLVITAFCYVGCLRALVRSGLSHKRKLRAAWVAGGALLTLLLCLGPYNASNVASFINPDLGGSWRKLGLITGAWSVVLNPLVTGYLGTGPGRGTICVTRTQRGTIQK
Experiment: Calcium flux assay in CHO cells expressing mouse GPR40
Reported Property: EC50 (µM)
Respond numerically; units are µM and should not be typed.

Measured EC50 of O=C(O)CCCOc1ccc(COc2cc(F)ccc2-c2ccc(F)cc2)cc1F [Compound 14d] : 12.7

----------
Target: human GPR40 (hGPR40) (Homo sapiens)
Sequence (O14842 whole entry): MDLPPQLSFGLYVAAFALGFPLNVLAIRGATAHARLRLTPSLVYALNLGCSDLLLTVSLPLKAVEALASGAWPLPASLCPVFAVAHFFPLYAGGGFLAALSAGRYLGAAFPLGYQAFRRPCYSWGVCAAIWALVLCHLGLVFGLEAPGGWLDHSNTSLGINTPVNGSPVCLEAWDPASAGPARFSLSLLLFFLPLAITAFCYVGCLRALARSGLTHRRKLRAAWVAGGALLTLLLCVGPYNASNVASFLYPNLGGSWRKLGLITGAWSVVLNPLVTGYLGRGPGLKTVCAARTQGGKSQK
Experiment: Calcium flux assay in hGPR40-expressing CHO cells
Listing: EC50 of selected compounds
Please reply with the bare figure in µM and do not write the unit itself.

For record Cc1ccc(-c2ccc(F)cc2OCc2ccc(OCC(=O)O)c(F)c2)cc1 [Compound 10i] the listed EC50 is 87.2

Short answer for Cc1ccc(-c2ccc(F)cc2OCc2ccc(OCC(=O)O)c(C)c2)cc1 [Compound 10e] : EC50 was 141

Measured EC50, Cc1ccc(-c2ccc(F)cc2OCc2ccc(OCCC(=O)O)c(F)c2)cc1 [Compound 10j] : 85.5

EC50 for Cc1ccc(-c2ccc(F)cc2OCc2ccc(OCCCCC(=O)O)cc2)cc1 [Compound 10d] is 144

----------
Target: UniProtKB O14842
Experiment: Calcium flux assay in hGPR40-expressing CHO cells
Known pEC50 of a selection of compounds
By convention, pEC50 is the negative base-10 log of a molar concentration.

pEC50 reported for this compound Cc1ccc(-c2ccc(F)cc2OCc2ccc(OCCCC(=O)O)c(F)c2)cc1 [Compound 10k] : 4.13

Others:
Sure, the documented pEC50 for Cc1ccc(-c2ccc(F)cc2OCc2ccc(OCCCCC(=O)O)c(F)c2)cc1 [Compound 10l] is 4.02

// pEC50 value for Cc1ccc(-c2ccc(F)cc2OCc2ccc(OCCCC(=O)O)c(F)c2)c(C)c1 [Compound 14i] : 4.02

Looking up Cc1ccc(-c2ccc(F)cc2OCc2ccc(OCCCC(=O)O)cc2)cc1 [Compound 10c] , I see its pEC50 listed as 3.95

Notebook: Cc1ccc(-c2ccc(F)cc2OCc2ccc(OCCCC(=O)O)c(F)c2)c(Cl)c1 [Compound 14m] , pEC50 read as 4.10

Kindly note the recorded pEC50 for Cc1cccc(-c2ccc(F)cc2OCc2ccc(OCCCC(=O)O)c(F)c2)c1 [Compound 14b] , which is 4.03

Record Cc1ccc(-c2ccc(F)cc2OCc2ccc(OCC(=O)O)cc2)cc1 [Compound 10a] , field pEC50: 4.12

# compound Cc1ccccc1-c1ccc(F)cc1OCc1ccc(OCCCC(=O)O)c(F)c1 [Compound 14a] ; its pEC50 = 4.16

----------
Listed here: items and their measured half-life.
Test: Pharmacokinetic analysis in C57BL/6 mice
Format: in vivo
Settings: male, mouse, plasma, po; C57BL/6 mice, 10 mg/kg gavage, mean ± SD of four mice; read-out: t1/2 (converted)
Output spec: scalar in h, unitless text.

Reported half-life for Cc1ccc(-c2ccc(F)cc2OCc2ccc(OCCCC(=O)O)c(F)c2)cc1 [Compound 10k] was 1.1

API: the following record is the query input.
Field half-life (entry O=C(O)CCCOc1ccc(COc2cc(F)ccc2-c2ccc(F)cc2)cc1F [Compound 14d] ) reads 1.6

----------
Molecular target: human GPR120 (hGPR120) (Homo sapiens, UniProt Q5NUL3)
Experiment: Calcium flux assay in hGPR120-transfected CHO cells
Settings: hGPR120 over hGPR40
Item-by-item account of Selectivity
The answer should be a number; do not append a unit.

Lab note: Cc1ccc(-c2ccc(F)cc2OCc2ccc(OCCCC(=O)O)cc2)cc1 [Compound 10c] gave Selectivity of 875.6

Cc1ccc(-c2ccc(F)cc2OCc2ccc(OCC(=O)O)c(C)c2)cc1 [Compound 10e] yielded Selectivity of 1019.5

Entry Cc1ccc(-c2ccc(F)cc2OCc2ccc(OCCCC(=O)O)c(F)c2)cc1 [Compound 10k] , Selectivity reported as 1289.9

Measured Selectivity of Cc1ccc(-c2ccc(F)cc2OCc2ccc(OCCCCC(=O)O)cc2)cc1 [Compound 10d] : 1391.5

Lab book: Selectivity of Cc1ccc(-c2ccc(F)cc2OCc2ccc(OCCCC(=O)O)c(F)c2)c(C)c1 [Compound 14i] noted as 600.0

# molecule Cc1ccc(-c2ccc(F)cc2OCc2ccc(OCCCC(=O)O)c(F)c2)c(Cl)c1 [Compound 14m] ; its Selectivity = 419.6

Selectivity reported for this molecule Cc1ccc(-c2ccc(F)cc2OCc2ccc(OCC(=O)O)cc2)cc1 [Compound 10a] : 824.7

molecule Cc1ccc(-c2ccc(F)cc2OCc2ccc(OCC(=O)O)c(F)c2)cc1 [Compound 10i] , Selectivity observed: 1129.5

Now for the molecule whose Selectivity we want.
For record Cc1ccccc1-c1ccc(F)cc1OCc1ccc(OCCCC(=O)O)c(F)c1 [Compound 14a] the listed Selectivity is 757.7

Hey, just so you know, these numbers are from paper PMC9781217.
